Provenance of the data: patent US11319324B2

Target: human P2X2/3 receptors (Homo sapiens, UniProt P56373+Q9UBL9)
Construct: expressed in transfected cells; host or cells: human astrocytoma 1321N1 (1312N1 [sic])
Test: Intracellular calcium measurement, antagonist activity at human P2X2/3 receptors (hP2X23 1321N1), Fluo8
Type: cell-based
Details: column 4); 1321N1 cells, human P2X2/3, Fluo8, agonist ATP at EC50; read-out: 4) hP2X2/3 IC50 [nM] (1321N1)
Exercise: for every item that follows, state its recorded IC50.

| Compound | Target Or System | IC50 |
| --- | --- | --- |
| CC(C)N1Cc2c(n(CC(=O)Nc3ccc(F)cn3)c3cc(C(=O)NCC(F)F)nn3c2=O)C1=O | human P2X2/3 receptors (Homo sapiens, UniProt P56373+Q9UBL9) | 3200 nM |
| CC(C)N1Cc2c(n(CC(=O)Nc3ccc(F)cn3)c3cc(C4CCCCC4)nn3c2=O)C1=O | human P2X2/3 receptors (Homo sapiens, UniProt P56373+Q9UBL9) | 1950 nM |
| CCc1cc2n(CC(=O)Nc3ccc(F)cn3)c3c(c(=O)n2n1)CN(CC1CCCN1C(=O)OC(C)(C)C)C3=O (stereo not shown) | human P2X2/3 receptors (Homo sapiens, UniProt P56373+Q9UBL9) | 2600 nM |

# context switch: different compound, same IC50
For `CCc1cc2n(CC(=O)Nc3ccc(Br)cn3)c3c(c(=O)n2n1)CN(C(C)C)C3=O` , what is its reported IC50?
6350 nM

###

Target: human P2X3 receptor (Homo sapiens)
Sequence (P56373 1-397): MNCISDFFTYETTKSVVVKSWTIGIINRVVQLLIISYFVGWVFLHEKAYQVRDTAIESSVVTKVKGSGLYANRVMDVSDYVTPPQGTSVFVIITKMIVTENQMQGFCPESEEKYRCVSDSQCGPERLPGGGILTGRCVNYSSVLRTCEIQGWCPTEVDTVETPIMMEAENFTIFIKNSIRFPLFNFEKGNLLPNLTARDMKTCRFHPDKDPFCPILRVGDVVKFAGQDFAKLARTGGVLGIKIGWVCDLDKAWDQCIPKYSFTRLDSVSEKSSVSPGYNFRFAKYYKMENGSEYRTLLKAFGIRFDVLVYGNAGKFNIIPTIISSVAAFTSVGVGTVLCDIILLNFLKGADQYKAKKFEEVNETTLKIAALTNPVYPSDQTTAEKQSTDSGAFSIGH
Assay: Intracellular calcium measurement to assess antagonist activity at human P2X3 receptors (hP2X3 CHO), photina luminescence
Assay type: cell-based
Parameters: expressed in transfected cells; host or cells: Chinese hamster ovary (CHO) cells
Conditions: column 2), CHO cells, agonist α,β-methylene-ATP at EC50
Hi there, I'd appreciate the recorded IC50 for every entry that follows.
Numbers only, in nM.

Illustrative cases are given below, each with its answer.
| Compound | IC50 / nM |
| --- | --- |
| CC(C)N1Cc2c(n(CC(=O)Nc3ccc(F)cn3)c3cc(C4CCN(C(=O)OC(C)(C)C)C4)nn3c2=O)C1=O (racemic) | 22 |
| O=C(Cn1c2c(c(=O)n3nc(-c4ccncc4)cc13)CN(Cc1ccc(F)cc1)C2=O)Nc1ccc(F)cn1 | 53 |
| COC[C@H](C)N1Cc2c(n(CC(=O)Nc3ccc(F)cn3)c3cc(-c4ccc(C)cn4)nn3c2=O)C1=O | 6 |

Now consider the entry below.
// fetch human P2X3 receptor (Homo sapiens) IC50 for `CC(=O)Nc1cc2n(CC(=O)Nc3ccc(F)cn3)c3c(c(=O)n2n1)CN(C(C)C)C3=O`
110

###

Molecular target: human P2X3 receptor (Homo sapiens)
Experiment: Intracellular calcium measurement, antagonist activity at human P2X3 receptors (hP2X3 1321N1), Fluo8
Format: cell-based
Design: expressed in transfected cells; host or cells: human astrocytoma 1321N1 (1312N1 [sic])
Conditions: column 3); 1321N1 cells, human P2X3, Fluo8, agonist ATP at EC50
Experimental Endpoint: IC50 (nM)
Give bare numbers, in nM.

| Compound | Uom | Test Value |
| --- | --- | --- |
| CC(=O)N1CCC(c2cc3n(CC(=O)Nc4ccc(F)cn4)c4c(c(=O)n3n2)CN(C(C)C)C4=O)CC1 [Example 263] | nM | 25 |
| CC(C)NC(=O)Nc1cc2n(CC(=O)Nc3ccc(F)cn3)c3c(c(=O)n2n1)CN(C(C)C)C3=O [Example 290] | nM | 105 |

Batch request: IC50 for each of the following compounds.
1. CC(C)N1Cc2c(n(CC(=O)Nc3ccc(F)cn3)c3cc(C4CCN(C(=O)C(F)F)CC4)nn3c2=O)C1=O [Example 264]
2. CCc1cc2n(CC(=O)Nc3ccc(F)cn3)c3c(c(=O)n2n1)CN(C[C@H]1CN(C(C)C)CCO1)C3=O [Example 256]
3. CCc1cc2n(CC(=O)Nc3ccc(F)cn3)c3c(c(=O)n2n1)CN(C1CCNC1)C3=O.Cl (racemic) [Example 236]
4. CCc1cc2n(CC(=O)Nc3ccc(F)cn3)c3c(c(=O)n2n1)CN(C1CCN(C(=O)C(F)F)C1)C3=O (stereo not shown) [Example 266]

17
53
1280
317

###

Biological target: human P2X2/3 receptors (Homo sapiens, UniProt P56373+Q9UBL9)
Construct: expressed in transfected cells; host or cells: human astrocytoma 1321N1 (1312N1 [sic])
Test: Intracellular calcium measurement, antagonist activity at human P2X2/3 receptors (hP2X23 1321N1), Fluo8
Format: cell-based
Conditions: column 4); 1321N1 cells, human P2X2/3, Fluo8, agonist ATP at EC50; read-out: 4) hP2X2/3 IC50 [nM] (1321N1)
Experimental Endpoint: IC50 (nM)
Give bare numbers, in nM.

// solved cases for IC50 follow
| Molecule | Uom | Test Value |
| --- | --- | --- |
| CCc1cc2n(CC(=O)Nc3ccc(F)cn3)c3c(c(=O)n2n1)CN(C(C)COCc1ccccc1)C3=O (racemic) [Example 121] | nM | 1160 |
| CC(C)N1Cc2c(n(CC(=O)Nc3ccc(F)cn3)c3cc(C(=O)N(C)CC4CC4)nn3c2=O)C1=O [Example 199] | nM | 7000 |

Turning to the following molecule.
Value lookup for IC50; key = CC[C@@H](C)N1Cc2c(n(CC(=O)Nc3ccc(Cl)cn3)c3cc(C(F)(F)F)nn3c2=O)C1=O [Example 15]
4650

###

Target: human P2X3 receptor (Homo sapiens, UniProt P56373)
Sequence (P56373 1-397): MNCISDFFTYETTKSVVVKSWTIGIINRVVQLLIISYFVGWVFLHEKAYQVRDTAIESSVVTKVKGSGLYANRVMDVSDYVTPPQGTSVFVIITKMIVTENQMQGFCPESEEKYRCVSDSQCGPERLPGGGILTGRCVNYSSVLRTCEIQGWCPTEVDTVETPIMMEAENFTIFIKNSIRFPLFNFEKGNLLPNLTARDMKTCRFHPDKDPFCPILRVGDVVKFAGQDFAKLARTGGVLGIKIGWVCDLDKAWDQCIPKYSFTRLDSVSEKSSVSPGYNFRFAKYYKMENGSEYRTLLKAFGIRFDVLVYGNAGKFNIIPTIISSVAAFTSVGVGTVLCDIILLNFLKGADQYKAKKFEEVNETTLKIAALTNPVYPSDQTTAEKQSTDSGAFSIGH
Assay: Intracellular calcium measurement, antagonist activity at human P2X3 receptors (hP2X3 1321N1), Fluo8
Type: cell-based
Parameters: expressed in transfected cells; host or cells: human astrocytoma 1321N1 (1312N1 [sic])
Conditions: column 3); 1321N1 cells, human P2X3, Fluo8, agonist ATP at EC50
Experimental Endpoint: IC50 (nM)
Give bare numbers, in nM.

// below: answered compounds
| Compound | Experimental Endpoint | Test Value |
| --- | --- | --- |
| COC[C@H](C)N1Cc2c(n(CC(=O)Nc3ccc(F)cn3)c3cc(-c4ccncc4C)nn3c2=O)C1=O [Example 152] | IC50 | 4 |
| CC(C)Nc1cc2n(CC(=O)Nc3ccc(F)cn3)c3c(c(=O)n2n1)CN(C(C)C)C3=O [Example 171] | IC50 | 33 |
| CC(C)N1Cc2c(n(CC(=O)Nc3ccc(F)cn3)c3cc(N4CCN(C)CC4)nn3c2=O)C1=O [Example 181] | IC50 | 32 |

--- query ---
Could you tell me which IC50 is on file for CCc1cc2n(CC(=O)Nc3ccc(F)cn3)c3c(c(=O)n2n1)CN(CCN)C3=O [Example 245] ?
345

###

Biological target: human P2X3 receptor (Homo sapiens)
Test: Intracellular calcium measurement to assess antagonist activity at human P2X3 receptors (hP2X3 CHO), photina luminescence
Assay type: cell-based
Set-up: expressed in transfected cells; host or cells: Chinese hamster ovary (CHO) cells
Details: column 2), CHO cells, agonist α,β-methylene-ATP at EC50
Kindly supply the reported IC50 values for the records listed here.
One number for each entry, in nM.

Answered cases to consult:
| Compound | Target Or System | Test Value |
| --- | --- | --- |
| CC(C)N1Cc2c(n(CC(=O)Nc3ccc(F)cn3)c3cc(C#N)nn3c2=O)C1=O | human P2X3 receptor (Homo sapiens) | 97 |
| COC[C@H](C)N1Cc2c(n(CC(=O)Nc3ccc(F)cn3)c3cc(C(=O)N(C)c4ccccn4)nn3c2=O)C1=O | human P2X3 receptor (Homo sapiens) | 22 |
| COCCNc1cc2n(CC(=O)Nc3ccc(F)cn3)c3c(c(=O)n2n1)CN(C(C)C)C3=O | human P2X3 receptor (Homo sapiens) | 108 |
| CNc1cc2n(CC(=O)Nc3ccc(F)cn3)c3c(c(=O)n2n1)CN([C@@H](C)COC)C3=O | human P2X3 receptor (Homo sapiens) | 120 |
| CC(C)N1Cc2c(n(CC(=O)Nc3ccc(F)cn3)c3cc(C4CN(C(=O)OC(C)(C)C)C4)nn3c2=O)C1=O | human P2X3 receptor (Homo sapiens) | 115 |
| CC(O)c1cc2n(CC(=O)Nc3ccc(F)cn3)c3c(c(=O)n2n1)CN(C(C)C)C3=O (racemic) | human P2X3 receptor (Homo sapiens) | 173 |

Look at each compound and report its IC50.
1. O=C(Cn1c2c(c(=O)n3nc(C4CC4)cc13)CN(CCN1CCOCC1)C2=O)Nc1ccc(F)cn1
2. CC(C)N1Cc2c(n(CC(=O)Nc3ccc(F)cn3)c3cc(NC(=O)OC(C)(C)C)nn3c2=O)C1=O

1: 69; 2: 27

Batch request: IC50 for each of the following compounds.
1. Cc1ccc(NC(=O)Cn2c3c(c(=O)n4nc(C(C)(C)C)cc24)CN(C2COC2)C3=O)nc1
2. CC(C)N1Cc2c(n(CC(=O)Nc3ccc(F)cn3)c3cc(N(C)C)nn3c2=O)C1=O

1. 1100
2. 35

For each entry beneath this line, provide reported IC50.
1. COCC(C)N1Cc2c(n(CC(=O)Nc3ccc(F)cn3)c3cc(C(C)(C)C)nn3c2=O)C1=O (stereo not drawn)
2. CCc1cc2n(CC(=O)Nc3ccc(F)cn3)c3c(c(=O)n2n1)CN(CCN)C3=O
3. COC[C@H](C)N1Cc2c(n(CC(=O)Nc3ccc(F)cn3)c3cc(C(=O)NCC4CC4)nn3c2=O)C1=O
4. CC(C)(C)c1cc2n(CC(=O)Nc3ccc(F)cn3)c3c(c(=O)n2n1)CN(CCN1CCOCC1)C3=O
5. COCC(=O)Nc1cc2n(CC(=O)Nc3ccc(F)cn3)c3c(c(=O)n2n1)CN(C(C)C)C3=O

[23, 425, 10, 32, 110]
